Every entry's value here was drawn from PubChem BioAssay (NCI).

Test system: MDA-MB-468 breast
Procedure Details: NCI-60 one-dose screen, 48 h (100 = growth as untreated, 0 = no growth, -100 = all killed)
Condition Label: 10 µM unless noted
Compounds without any hit were thinned out: in the full panel of roughly 83,000, 20% have a hit.
Satisfied if growth is below 90%. Not satisfied if not; exact matches included in Not satisfied.

Worked examples follow.
- Mol Smiles: "CCSc1nc2c([nH]1)c(=O)n(C)c(=S)n2C"
  Assayed System: "MDA-MB-468 breast"
  Category Label: "Not satisfied"
- Mol Smiles: "COc1cc2c(cc1OCCCN1Cc3ccc(OCCCCC(=O)N4CCC(CCN5CCCC5)CC4)cc3C1)N=C(N)C21CCCC1"
  Assayed System: "MDA-MB-468 breast"
  Category Label: "Satisfied"
- Mol Smiles: "Cc1cc(N2CCCCC2)nc(N(CCNc2ccnc3cc(Cl)ccc23)Cc2ccco2)n1"
  Assayed System: "MDA-MB-468 breast"
  Category Label: "Satisfied"
- Mol Smiles: "O=C(c1ccc(O)cc1)[C@@H]1CN[C@@]2(C(=O)Nc3ccccc32)[C@H]1c1ccc(F)cc1"
  Assayed System: "MDA-MB-468 breast"
  Category Label: "Not satisfied"
- Mol Smiles: "Cc1ccc(-c2c3c(N)c4c(nc3nc3c2c(C)nn3-c2ccccc2)CCCC4)cc1"
  Assayed System: "MDA-MB-468 breast"
  Category Label: "Not satisfied"

IN: Report whether reported growth is lower than 90% (strictly) for O=S(=O)(NCCCNc1nccc(-c2c(-c3ccc(F)c(O)c3)nc3sccn23)n1)c1ccc(F)cc1
OUT: Satisfied

IN: Report whether reported growth is lower than 90% (strictly) for C=CCn1c(C)nc2cc(Nc3nc(Nc4ccc5nc(C)n(CC=C)c5c4)c4ccccc4n3)ccc21
OUT: Satisfied

====

System: MDA-MB-468 breast
Procedure Details: NCI-60 one-dose screen, 48 h
Condition Label: 10 µM unless noted
About 83,000 compounds went through this panel and 20% of them were active in at least one assay; those are over-represented in the sample as a whole. The source made the active and inactive calls. How the source made its calls: active means growth percent below 10; inactive means the rest.
One label from this list, please: y = active, n = inactive

Worked examples follow.
- Compound: "O=C(NCCNc1nccc(-c2c(-c3cccc(O)c3)nc3sccn23)n1)c1cccc(C(F)(F)F)c1"
  Category Label: "n"
- Compound: "CCN(CC)CCCC(C)NCCCNc1cccc2cccnc12 (stereo not given)"
  Category Label: "n"
- Compound: "CCOC(=O)C(Cc1cc(I)c(O)c(I)c1)NC(=O)c1ccccc1 (stereo not given)"
  Category Label: "n"
- Compound: "CCOC(=O)C1=C(C)NC(C)=C(C(=O)OCc2ccccc2)C1c1cccc(C#N)c1 (stereo not given)"
  Category Label: "n"

Please turn your attention to the following entry.
IN: I'd appreciate the recorded outcome for COC(=O)c1c2c(c[n+]([O-])c1C)C(=O)C=CC2=O from this test.
OUT: y

====

Test system: SW-620 colon
Procedure Details: NCI-60 one-dose screen, 48 h (100 = growth as untreated, 0 = no growth, -100 = all killed)
Condition Label: 10 µM
The panel holds about 83,000 compounds, 20% with a hit somewhere; the sample as a whole holds those more often.
Yes if growth is below 50%. No if not; exact matches included in No.

IN: Report whether reported growth is lower than 50% (strictly) for Cn1cc(-c2nc(N)nnc2-c2c[nH]c3ccccc23)c2cc(Br)cnc21
OUT: Yes

IN: Report whether reported growth is lower than 50% (strictly) for COc1ccc(C2c3sc4ccc(C)cc4c3Oc3nc[nH]c(=O)c32)cc1 (centres undefined)
OUT: No

====

System: MDA-MB-468 breast
Procedure Details: NCI-60 one-dose screen, 48 h (100 = growth as untreated, 0 = no growth, -100 = all killed)
Condition Label: 10 µM unless noted
This is part of a sample that, as a whole, favours compounds with a hit. Of some 83,000 tested, about 20% had one in any assay.
Measured Attribute: growth (%)
Please respond with the number in % and leave the unit unwritten.

Worked cases, growth given:
- Compound: "COCCOc1ccc(-c2csc(NC(=O)CN3CCN(CCO)CC3)n2)cc1NS(=O)(=O)c1cccc2c(N(C)C)cccc12"
  Assayed System: "MDA-MB-468 breast"
  growth / %: 60.7
- Compound: "CN1CCN(Cc2ccc(NC(=O)c3[nH]ncc3Nc3ncnc4sccc34)cc2)CC1"
  Assayed System: "MDA-MB-468 breast"
  growth / %: 15.8
- Compound: "c1ccc(Nc2nc(Nc3ccccc3)nc(Nc3ccccc3)n2)cc1"
  Assayed System: "MDA-MB-468 breast"
  growth / %: 93.8
- Compound: "CC[N+]1(CC)CC[N+]2(CCCC(C)CC2)CC1 (stereo not given)"
  Assayed System: "MDA-MB-468 breast"
  growth / %: 108

Here's the next entry for you.
Form: compound = CC1(C)CC[C@]2(CO)CC[C@]3(C)C(=CC[C@@H]4[C@@]5(C)CCNCC(C)(C)[C@@H]5CC[C@]43C)[C@@H]2C1 ; growth = -33.1

====

Documented growth across a set of compounds
Test system: MDA-MB-468 breast
Procedure Details: NCI-60 one-dose screen, 48 h (100 = growth as untreated, 0 = no growth, -100 = all killed)
Condition Label: 10 µM unless noted
This is part of a sample that, as a whole, favours compounds with a hit. Of some 83,000 tested, about 20% had one in any assay. Calls of active or inactive are those of the source. How the source made its calls: active means growth percent below 10; inactive means the rest.

Worked cases, growth given:
- Compound: "COc1ccc(-c2cc(-c3cccnc3)nc3sc4c(Cl)nnnc4c23)cc1OC"
  growth: "80.1% (inactive)"
- Compound: "CN(C)CCCC(C#N)c1ccccc1 (stereo not given)"
  growth: "108% (inactive)"
- Compound: "Brc1c[n+](Cc2ccc3ccccc3c2)cn1Cc1ccc2ccccc2c1"
  growth: "-29.1% (active)"
- Compound: "ClC(Cl)c1nc(-c2ccccc2)nc2cc(-c3ccccc3)nn12"
  growth: "33.8% (inactive)"

Here's the next entry for you.
Form: compound = COc1ccccc1S(=O)(=O)Nc1ccc2c3c(cc(CCC(=O)NCCCCNc4cccc5c4C(=O)N(C4CCC(=O)NC4=O)C5=O)cc13)C(=O)N2C (stereo not given) ; growth = -35.5% (active)

====

System: MDA-MB-468 breast
Procedure Details: NCI-60 one-dose screen, 48 h
Condition Label: 10 µM unless noted
Compounds without any hit were thinned out: in the full panel of roughly 83,000, 20% have a hit. The source made the active and inactive calls. Rule for the calls: active = growth percent below 10; inactive = the rest.
One label from this list, please: label 1 for active, label 0 for inactive

Worked examples follow.
- Molecule: "CCOC(=O)C(=O)Cc1cccnn1"
  Category Label: "label 0"
- Molecule: "Fc1cccc(Oc2ccc(Nc3ncnc4ccc(OCCCN5CCOCC5)cc34)cc2Cl)c1"
  Category Label: "label 1"
- Molecule: "CCC1C(=O)COC1=O (stereo not given)"
  Category Label: "label 0"
- Molecule: "COc1cc(OC)c(C(=O)/C=C/c2ccc(C(F)(F)F)cc2)c(OC)c1"
  Category Label: "label 0"

Please turn your attention to the following entry.
IN: I'd appreciate the recorded outcome for COc1cc(/C=C2\CN(S(=O)(=O)c3ccc(C)cc3)C/C(=C\c3cc(CN4CCCCC4)c(O)c(OC)c3)C2=O)cc(CN2CCCCC2)c1O from this test.
OUT: label 1

====

Tested on: MDA-MB-231 breast
Procedure Details: NCI-60 one-dose screen, 48 h (100 = growth as untreated, 0 = no growth, -100 = all killed)
Condition Label: 10 µM
About 83,000 compounds went through this panel and 20% of them were active in at least one assay; those are over-represented in the sample as a whole.
param class (str): category from growth; see ranges lo: < 40%; mid: ≥ 40% and < 80%; hi: ≥ 80%

- Molecule: "COc1ccc(C(=O)COc2ccc(NC(=O)Nc3ccc(Cl)c(C(F)(F)F)c3)cc2)cc1"
  Category Label: "lo"
- Molecule: "O=C(CN1CCN(c2ncnc3c2cnn3-c2ccccc2)CC1)Nc1ccc(Br)cc1"
  Category Label: "mid"
- Molecule: "Cn1cc(-c2nnc(N)nc2-c2c[nH]c3ccc(F)cc23)c2cc(Br)cnc21"
  Category Label: "mid"
- Molecule: "CCOc1ccc(/C=N/NC(=O)Cn2nc(Cc3ccc(OC)cc3)c3onc(C)c3c2=O)cc1"
  Category Label: "lo"
- Molecule: "Cn1cc(-c2cc(N)n3nc(-c4cn(C)c5ccccc45)cc3n2)c2cc(F)ccc21"
  Category Label: "lo"

IN: Note: place this molecule into its band. Item: O=C(CC(=O)Nc1ccc(Oc2ncnc3scc(Nc4n[nH]c(=S)s4)c23)cc1)Nc1ccc(Br)cc1
OUT: hi

IN: Note: place this molecule into its band. Item: COc1ccc(C2c3sc4ccc(C)cc4c3Oc3nc[nH]c(=O)c32)cc1 (stereo unspecified)
OUT: hi

IN: Note: place this molecule into its band. Item: COc1ccc(Cc2nn(CC(=O)N/N=C/c3ccc([N+](=O)[O-])cc3)c(=O)c3c(C)noc23)cc1
OUT: mid

IN: Note: place this molecule into its band. Item: O=C(Nc1ccc(OCC(=O)c2ccc(Cl)cc2)cc1)Nc1ccc(Cl)c(C(F)(F)F)c1
OUT: mid
